Hello, the source for this data is patent US9000045B2, in case you need it.

Could you please report measured inhibition at 100 mg/kg for the items listed next?
Biological target: CETP (Homo sapiens)
Sequence (P11597 18-493): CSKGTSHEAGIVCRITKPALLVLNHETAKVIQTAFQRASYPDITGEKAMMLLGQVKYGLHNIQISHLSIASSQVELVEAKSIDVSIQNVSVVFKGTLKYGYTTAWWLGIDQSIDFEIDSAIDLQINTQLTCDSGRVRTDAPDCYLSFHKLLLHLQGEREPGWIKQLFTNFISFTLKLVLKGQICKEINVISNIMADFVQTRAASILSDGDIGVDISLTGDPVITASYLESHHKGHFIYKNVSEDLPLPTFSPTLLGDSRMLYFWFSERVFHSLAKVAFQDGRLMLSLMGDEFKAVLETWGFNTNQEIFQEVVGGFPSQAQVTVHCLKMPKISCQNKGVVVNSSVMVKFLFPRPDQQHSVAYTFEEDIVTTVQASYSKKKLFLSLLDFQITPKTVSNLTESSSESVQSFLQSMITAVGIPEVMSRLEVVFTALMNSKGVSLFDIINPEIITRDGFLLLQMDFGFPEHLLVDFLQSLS
Assay: Ex vivo CETP activity inhibitory effect of plasma from transgenic mice
Design: from tissue; host or cells: plasma of transgenic mice carrying the human CETP gene
Settings: mouse, po; 100 mg/kg, p.o.; 6 hours after administration; transgenic mice with human CETP gene; read-out: CETP activity inhibitory rate in plasma from transgenic mouse
// units = %; emit number, no label

Ask: Data request, read-out inhibition at 100 mg/kg, for COCC(=O)Sc1ccccc1NC(=O)C1(CCC(C)C)CCCCC1
Result: 47

Ask: Please look up its inhibition at 100 mg/kg: CC(C)CCC1(C(=O)Nc2cc(Cl)c(Cl)cc2SC(=O)NC(C)(C)C)CCCC1
Result: 8

Ask: Name the reported inhibition at 100 mg/kg value associated with the compound CC(C)CCC1(C(=O)Nc2ccccc2SC(=O)NC(C)(C)C)CCCCC1
Result: 19

Ask: Dear colleague, I am looking for the recorded inhibition at 100 mg/kg of the following compound: CC(=O)Sc1ccccc1NC(=O)C1(CCC(C)C)CCCCC1
Result: 52

====

So I've got a bunch of molecules here, and I need their IC50 values.
Target: UniProtKB P11597
Assay: In vitro CETP activity inhibitory effect in whole plasma
Conditions: plasma from healthy subjects containing [3H]CE-HDL3, incubated 4 hours at 37° C.; read-out: CETP activity inhibition in whole plasma IC50
Respond with the bare value in µM.

Ask: Report IC50 for CCSC(=O)Sc1ccc(C(F)(F)F)cc1NC(=O)C1(C)CCCCC1 please.
Result: 19

Ask: What value of IC50 has been reported for the following molecule? CC1(C(=O)Nc2ccccc2S)CCCCC1
Result: 17

Ask: # get_value(readout='IC50', item= CC(C)CCC1(C(=O)Nc2ccccc2SC(=O)NC(C)(C)C)CCCCC1 )
Result: 9

Ask: Give its IC50 value. Item: CC(C)(C)C(=O)Sc1ccccc1NC(=O)C1(C)CCCCC1
Result: 72

Ask: Query: IC50; subject: CC(C)(C)C(=O)Sc1cc(Cl)c(Cl)cc1NC(=O)C1(CCC2CC2)CCCCC1
Result: 11

Ask: Suppose we examine the molecule CC1(C(=O)Nc2ccccc2SC(=O)[C@H](N)c2ccccc2)CCCCC1 ; what IC50 value has been reported?
Result: 22

Ask: Please report the recorded IC50 for CC(C)CCC1(C(=O)Nc2cc(Cl)c(Cl)cc2SC(=O)c2ccccc2)CCCCC1 .
Result: 14

====

Can you tell me pIC50 for the items I'm about to list?
Target: UniProtKB P11597
Sequence (P11597 18-493): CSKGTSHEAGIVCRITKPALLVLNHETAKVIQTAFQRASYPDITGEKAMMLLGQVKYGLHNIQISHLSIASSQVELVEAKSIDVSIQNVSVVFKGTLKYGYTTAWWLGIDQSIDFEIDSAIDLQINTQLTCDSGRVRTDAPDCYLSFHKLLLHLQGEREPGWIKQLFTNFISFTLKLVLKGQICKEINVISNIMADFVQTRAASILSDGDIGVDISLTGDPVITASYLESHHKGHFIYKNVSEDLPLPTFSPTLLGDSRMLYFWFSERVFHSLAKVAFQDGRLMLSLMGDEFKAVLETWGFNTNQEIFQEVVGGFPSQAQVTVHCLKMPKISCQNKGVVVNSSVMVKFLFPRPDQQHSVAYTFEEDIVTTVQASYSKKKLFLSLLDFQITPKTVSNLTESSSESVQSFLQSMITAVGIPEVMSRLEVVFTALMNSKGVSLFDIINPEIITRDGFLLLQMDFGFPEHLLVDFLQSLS
Assay: In vitro CETP activity inhibitory effect in whole plasma
Conditions: plasma from healthy subjects containing [3H]CE-HDL3, incubated 4 hours at 37° C.; read-out: CETP activity inhibition in whole plasma IC50
Please note pIC50 is a logarithmic value: minus log10 of concentration in mol/L. Answer with that number alone.

Ask: Item CC(C)CCC1(C(=O)Nc2ccccc2SC(=O)C2CCN(C)CC2)CCCCC1 [Example 25-53] has what recorded pIC50?
Result: 5.15

Ask: // lookup pIC50 for COc1ccc(NC(=O)Sc2ccccc2NC(=O)C2(CCC(C)C)CCCCC2)cc1 [Example 25-100]
Result: 4.80

Ask: Query (compound): CC(C)(C)C(=O)Sc1cc(Cl)c(Cl)cc1NC(=O)CC1CCCCC1 [Example 66-28] ; field requested: pIC50
Result: 4.74

Ask: Dear colleague, I am looking for the recorded pIC50 of the following compound: CC(=O)NCC(=O)Sc1ccccc1NC(=O)C1(C)CCCCC1 [Example 25-33]
Result: 4.74

Ask: Fill in the blank: the reported pIC50 of O=C(Nc1ccccc1SSc1ccccc1NC(=O)C12CC3CC(CC(C3)C1)C2)C12CC3CC(CC(C3)C1)C2 [Example 1-12] is ____.
Result: 4.92

Ask: Query (compound): CCC(CC)CC1(C(=O)Nc2ccccc2SC(=O)C(C)C)CCCCC1 [Example 26] ; field requested: pIC50
Result: 5.15

Ask: May I ask what pIC50 has been recorded for CC(C)(C)C(=O)Nc1ccccc1SSc1ccccc1NC(=O)C(C)(C)C [Example 1, bis-[2-(pivaloylamino)phenyl]disulfide] ?
Result: 4.70

Ask: Reported pIC50 for CC(=O)Nc1cccc(CC(=O)Sc2ccccc2NC(=O)C2(C)CCCCC2)c1 [Example 25-31] : what is it?
Result: 4.68

Ask: // pIC50 lookup, key: CCCCC1(C(=O)Nc2ccccc2S)CCCCC1 [Example 17]
Result: 5.10

Ask: Given CC(=O)N[C@@H](CC(C)C)C(=O)Sc1ccccc1NC(=O)C1(C)CCCCC1 [Example 25-35] , state its recorded pIC50.
Result: 4.57

Ask: Given the compound CC(C)(C)C(=O)Nc1ccccc1SC(=O)Cc1ccccc1[N+](=O)[O-] [Example 25-7] , what is its reported pIC50?
Result: 4.34

Ask: So what's the measured pIC50 for this one? CC(C)CC1(C(=O)Nc2ccccc2SC(=O)COc2ccc(Cl)cc2)CCCCC1 [Example 64]
Result: 5.40

Ask: Endpoint output: pIC50 of CC1(C(=O)Nc2ccccc2SC(=O)Sc2ccccc2)CCCCC1 [Example 55] . Value?
Result: 4.19

Ask: # input compound: CC(C)CCC1(C(=O)Nc2ccccc2SC(=O)C(C)(C)C)CCCCC1 [Example 33] ; wanted: its pIC50
Result: 4.21

Ask: Which pIC50 is reported for this compound? CC(C)(C)C(=O)Nc1cc(C(F)(F)F)ccc1SC(=O)C(C)(C)C [Example 57]
Result: 4.39

Ask: Value lookup for pIC50; key = CC(C)(C)C(=O)Nc1ccccc1CC(=O)Sc1ccccc1NC(=O)C(C)(C)C [Example 25-13]
Result: 4.55

Ask: Record request: pIC50 value, item CCC(CC)CC1(C(=O)Nc2ccccc2SC(=O)C(C)(C)O)CCCCC1 [Example 62]
Result: 5.40
